// reported Yap1 mRNA in tumors, % UTC per item
# Test system: Yap1 mRNA
# ASSAY_PROCEDURE: Inhibition of human Yap1 mRNA in squamous cell carcinoma CAL27 xenograft tumors (Example 28)
# Format: in vivo
# ASSAY_SETUP: 15 mg/kg daily for five days, CAL27 xenografts in NCr-Foxn1nu mice, relative to PBS treated
Numeric only. Scale: % UTC

Worked cases, Yap1 mRNA in tumors, % UTC given:
SUBSTANCE | TARGET_OR_TEST_SYSTEM | MEASUREMENT_NAME | READING
1198623 (CTAAGTAAGGTTTCCC; modified gapmer, further chemistry not given here) [compound 1198623] | Yap1 mRNA | Yap1 mRNA in tumors, % UTC | 52
1197270 (TTAAAGTGTATGTCAG; cEt gapmer with 2'-OMe nucleoside, phosphorothioate, further chemistry not given here) [compound 1197270] | Yap1 mRNA | Yap1 mRNA in tumors, % UTC | 55
1198728 (TATTAGAGTATGTGGC; modified gapmer, further chemistry not given here) [compound 1198728] | Yap1 mRNA | Yap1 mRNA in tumors, % UTC | 77
1198440 (AAGTGTATGTCAGAAG; cEt, 2'-MOE, 5-methylcytosine, phosphorothioate modifications, further chemistry not given here) [compound 1198440] | Yap1 mRNA | Yap1 mRNA in tumors, % UTC | 67

Now, please, on to the next substance.
Which Yap1 mRNA in tumors, % UTC is reported for this substance? 1198439 (AGTGTATGTCAGAAGA; sugar, 5-methylcytosine, phosphorothioate modifications, further chemistry not given here) [compound 1198439] 66
